Provenance of the data: the supplement of paper PMC8882468

# Tested on: HCI-012 (organoid from a breast cancer xenograft)
# ASSAY_METHOD_TEXT: CTG-3D luminescence at 96 h relative to day-0 seeding control (ratio to day 0); higher = more growth / less cytotoxicity; PDxO 3D drug screen, 96 h, CTG-3D normalised to day-0 seeding control.
# ASSAY_CONTEXT: 0.00025 µM; days in culture: 162
// reported CTG-3D luminescence at 96 h per item

SMILES_CODE | CTG-3D luminescence at 96 h
CC(=O)O[C@H]1C(=O)[C@@]2(C)[C@H]([C@H](OC(=O)c3ccccc3)[C@]3(O)C[C@H](OC(=O)[C@H](O)[C@@H](NC(=O)c4ccccc4)c4ccccc4)C(C)=C1C3(C)C)[C@]1(OC(C)=O)CO[C@@H]1C[C@@H]2O | 2.34
CCN1CCN(Cc2ccc(Nc3ncc(F)c(-c4cc(F)c5nc(C)n(C(C)C)c5c4)n3)nc2)CC1 | 2.54
C[C@H](NC(=O)CCC(F)(F)F)C(=O)N[C@@H]1C(=O)N(CCO)c2ncccc2-c2ccccc21 | 2.3
Cc1nc(-c2cn3c(n2)-c2ccc(-c4cnn(C(C)(C)C(N)=O)c4)cc2OCC3)n(C(C)C)n1 | 2.08
CC1(C)CCC(c2ccc(Cl)cc2)=C(CN2CCN(c3ccc(C(=O)NS(=O)(=O)c4ccc(N[C@H](CCN5CCOCC5)CSc5ccccc5)c(S(=O)(=O)C(F)(F)F)c4)cc3)CC2)C1 | 2.3
COc1cc2c(Oc3ccc4[nH]c(C)cc4c3F)ncnc2cc1OCCCN1CCCC1 | 1.99

* * *

# System: HCI-025 (organoid from a breast cancer xenograft)
# ASSAY_METHOD_TEXT: CTG-3D luminescence at 96 h relative to day-0 seeding control (ratio to day 0); higher = more growth / less cytotoxicity; PDxO 3D drug screen, 96 h, CTG-3D normalised to day-0 seeding control.
# ASSAY_CONTEXT: 0.1 µM; days in culture: 172
// reported CTG-3D luminescence at 96 h per item

COMPOUND | CTG-3D luminescence at 96 h
NC1(C(=O)N[C@@H](CCO)c2ccc(Cl)cc2)CCN(c2nc[nH]c3nccc2-3)CC1 [capivasertib] | 1.35
O=C(c1ccc(F)c(F)c1Nc1ccc(I)cc1F)N1CC(O)([C@@H]2CCCCN2)C1 [cobimetinib] | 1.38
CCc1c2c(nc3ccc(O)cc13)-c1cc3c(c(=O)n1C2)COC(=O)[C@]3(O)CC [SN-38] | 0.486
NC(=O)c1cccc2cn(-c3ccc([C@@H]4CCCNC4)cc3)nc12 [niraparib] | 2.04
COc1cc2c(Oc3ccc4[nH]c(C)cc4c3F)ncnc2cc1OCCCN1CCCC1 [cediranib] | 1.99
Cc1cc(Nc2ncc(Cl)c(Nc3ccccc3S(=O)(=O)C(C)C)n2)c(OC(C)C)cc1C1CCNCC1 [ceritinib] | 2.01

* * *

// reported CTG-3D luminescence at 96 h per item
# Test system: HCI-025
# ASSAY_METHOD_TEXT: CTG-3D luminescence at 96 h relative to day-0 seeding control (ratio to day 0); higher = more growth / less cytotoxicity; PDxO 3D drug screen, 96 h, CTG-3D normalised to day-0 seeding control.
# ASSAY_CONTEXT: 0.005 µM; days in culture: 209
PARAMETER_MEASURED: CTG-3D luminescence at 96 h

MOLECULE | TEST_VALUE
C[C@H](NC(=O)CCC(F)(F)F)C(=O)N[C@@H]1C(=O)N(CCO)c2ncccc2-c2ccccc21 [crenigacestat] | 2.26
CCc1c2c(nc3ccc(O)cc13)-c1cc3c(c(=O)n1C2)COC(=O)[C@]3(O)CC [SN-38] | 1.12
C[C@@H]1COCCN1c1cc(C2([S@](C)(=N)=O)CC2)nc(-c2cc[nH]c3nccc2-3)n1 [ceralasertib] | 1.64
CC[C@H](NC(=O)[C@H](C)NC)C(=O)N1C[C@@H](O)C[C@H]1Cc1c(-c2[nH]c3cc(F)ccc3c2C[C@@H]2C[C@H](O)CN2C(=O)[C@H](CC)NC(=O)[C@H](C)NC)[nH]c2cc(F)ccc12 [birinapant] | 1.01
CN(Cc1cnc2nc(N)nc(N)c2n1)c1ccc(C(=O)N[C@@H](CCC(=O)O)C(=O)O)cc1 [methotrexate] | 2.06
Cc1nc(-c2cn3c(n2)-c2ccc(-c4cnn(C(C)(C)C(N)=O)c4)cc2OCC3)n(C(C)C)n1 [taselisib] | 1.79
Nc1ccn([C@@H]2O[C@H](CO)[C@@H](O)C2(F)F)c(=O)n1 [gemcitabine] | 1.83
COc1cccc2c1C(=O)c1c(O)c3c(c(O)c1C2=O)C[C@@](O)(C(=O)CO)C[C@@H]3O[C@H]1C[C@H](N)[C@H](O)[C@H](C)O1 [doxorubicin] | 2.33
